Where these numbers come from: patent US8642647B2

# Test system: HepG2 cells
# test-protocol: Measurement of gluconeogenesis inhibitory ability
# Assay type: cell-based
# details: Homo sapiens, HepG2, 24 h, 100 μM compound, 24 hours, HepG2 cells; content of glucose formed from 14C-lactate; lower value = stronger inhibition; read-out: Gluconeogenesis inhibition (100 μM) aver.
Below: a set of entries, each annotated with reported activity at 100 µM.
# unit: % | format: bare number

CC(C)(C)c1ccc(N=C(NCc2ccc3c(c2)OCO3)NC(=N)N)cc1.Cl [Example 33, hydrochloride]
2.35
COc1ccc(N=C(NCc2ccc3c(c2)OCO3)NC(=N)N)cc1.Cl [Example 15, hydrochloride]
75.6
Cl.N=C(N)NC(=NC1CC1)NCc1ccc2c(c1)OCO2 [Example 38, hydrochloride]
78.9

Consider the record given below.
Inquiry: Requested read-out: activity at 100 µM. Entry: Cl.N=C(N)NC(=NC1CCCCC1)NCc1ccc2c(c1)OCO2 [Example 2, hydrochloride]
Reply text: 95.2
